- TEST SUMMARY: Plasma pharmacokinetics of gemcitabine
- Format: in vivo, human
- RUN PARAMETERS: human, plasma, intravenous, Gemcitabine Cmax, lonafarnib 100 mg BID+gemcitabine 750 mg/m2; cycle 1 Day 15 (with lonafarnib); n=4
OBSERVATION TYPE: Cmax (ng/mL)

> print(dat)
                                     smiles  observation.type  endpoint.value
1  Nc1ccn([C@@H]2O[C@H](CO)[C@@H](O)C2(F)F)c(=O)n1              Cmax           15000

###

- TEST SUMMARY: Plasma pharmacokinetics of gemcitabine
- Format: in vivo, human
- RUN PARAMETERS: human, plasma, intravenous, 1000 mg/m2, Gemcitabine Tmax (median), lonafarnib 100 mg BID+gemcitabine 1000 mg/m2; cycle 1 Day 1 (gemcitabine alone); n=2
OBSERVATION TYPE: Tmax (min)

> print(dat)
                                   compound  observation.type  value.units  endpoint.value
1  Nc1ccn([C@@H]2O[C@H](CO)[C@@H](O)C2(F)F)c(=O)n1 [Gemcitabine]              Tmax          min            22.8

###

- TEST SUMMARY: Multiple-dose plasma pharmacokinetics of lonafarnib
- Format: in vivo, human
- RUN PARAMETERS: human, plasma, oral, Lonafarnib T½, lonafarnib 200 mg BID+gemcitabine 600 mg/m2; cycle 2 day 15; n=4
OBSERVATION TYPE: half-life (min)

> print(dat)
                                     smiles  observation.type  endpoint.value
1  NC(=O)N1CCC(CC(=O)N2CCC([C@H]3c4ncc(Br)cc4CCc4cc(Cl)cc(Br)c43)CC2)CC1         half-life             287

###

- TEST SUMMARY: Multiple-dose plasma pharmacokinetics of lonafarnib
- Assay type: in vivo, human
- RUN PARAMETERS: human, plasma, oral, Lonafarnib AUC (τ), lonafarnib 100 mg BID+gemcitabine 750 mg/m2; cycle 2 day 15; n=3; 12 hour dosing interval
OBSERVATION TYPE: AUC (ng·h/mL)

> print(dat)
                                     smiles  observation.type  endpoint.value
1  NC(=O)N1CCC(CC(=O)N2CCC([C@H]3c4ncc(Br)cc4CCc4cc(Cl)cc(Br)c43)CC2)CC1               AUC            6030

###

- TEST SUMMARY: Plasma pharmacokinetics of gemcitabine
- Assay type: in vivo, human
- RUN PARAMETERS: human, plasma, intravenous, 750 mg/m2, Gemcitabine Tmax (median), lonafarnib 100 mg BID+gemcitabine 750 mg/m2; cycle 1 Day 1 (gemcitabine alone); n=4
OBSERVATION TYPE: Tmax (min)

> print(dat)
                                     smiles  endpoint.value
1  Nc1ccn([C@@H]2O[C@H](CO)[C@@H](O)C2(F)F)c(=O)n1              30

###

- TEST SUMMARY: Multiple-dose plasma pharmacokinetics of lonafarnib
- Format: in vivo, human
- RUN PARAMETERS: human, plasma, oral, Lonafarnib Cmax, lonafarnib 100 mg BID+gemcitabine 750 mg/m2; cycle 1 day 15; n=4
OBSERVATION TYPE: Cmax (ng/mL)

> print(dat)
                                   molecule  endpoint.value
1  NC(=O)N1CCC(CC(=O)N2CCC([C@H]3c4ncc(Br)cc4CCc4cc(Cl)cc(Br)c43)CC2)CC1 [Lonafarnib]             717

###

- TEST SUMMARY: Multiple-dose plasma pharmacokinetics of lonafarnib
- Assay type: in vivo, human
- RUN PARAMETERS: human, plasma, oral, Lonafarnib AUC (τ), lonafarnib 100 mg BID+gemcitabine 750 mg/m2; cycle 1 day 15; n=4; 12 hour dosing interval
OBSERVATION TYPE: AUC (ng·h/mL)

> print(dat)
                                     smiles  observation.type  value.units  endpoint.value
1  NC(=O)N1CCC(CC(=O)N2CCC([C@H]3c4ncc(Br)cc4CCc4cc(Cl)cc(Br)c43)CC2)CC1               AUC      ng·h/mL            6000

###

- TEST SUMMARY: Multiple-dose plasma pharmacokinetics of lonafarnib
- Type: in vivo, human
- RUN PARAMETERS: human, plasma, oral, Lonafarnib Tmax (median), lonafarnib 100 mg BID+gemcitabine 750 mg/m2; cycle 2 day 15; n=3
OBSERVATION TYPE: Tmax (h)

> print(dat)
                                   compound  observation.type  endpoint.value
1  NC(=O)N1CCC(CC(=O)N2CCC([C@H]3c4ncc(Br)cc4CCc4cc(Cl)cc(Br)c43)CC2)CC1 [Lonafarnib]              Tmax               4

###

- TEST SUMMARY: Multiple-dose plasma pharmacokinetics of lonafarnib
- Type: in vivo, human
- RUN PARAMETERS: human, plasma, oral, Lonafarnib Tmax (median), lonafarnib 100 mg BID+gemcitabine 1000 mg/m2; cycle 1 day 15; n=3
OBSERVATION TYPE: Tmax (h)

> print(dat)
                                     smiles  endpoint.value
1  NC(=O)N1CCC(CC(=O)N2CCC([C@H]3c4ncc(Br)cc4CCc4cc(Cl)cc(Br)c43)CC2)CC1               4

###

- TEST SUMMARY: Multiple-dose plasma pharmacokinetics of lonafarnib
- Type: in vivo, human
- RUN PARAMETERS: human, plasma, oral, Lonafarnib AUC (τ), lonafarnib 200 mg BID+gemcitabine 600 mg/m2; cycle 2 day 15; n=4; 12 hour dosing interval
OBSERVATION TYPE: AUC (µg·h/mL)

> print(dat)
                                   compound  endpoint.value
1  NC(=O)N1CCC(CC(=O)N2CCC([C@H]3c4ncc(Br)cc4CCc4cc(Cl)cc(Br)c43)CC2)CC1 [Lonafarnib]            14.5

###

- TEST SUMMARY: Multiple-dose plasma pharmacokinetics of lonafarnib
- Type: in vivo, human
- RUN PARAMETERS: human, plasma, oral, Lonafarnib Tmax (median), lonafarnib 100 mg BID+gemcitabine 750 mg/m2; cycle 1 day 15; n=4
OBSERVATION TYPE: Tmax (h)

> print(dat)
                                   molecule  endpoint.value
1  NC(=O)N1CCC(CC(=O)N2CCC([C@H]3c4ncc(Br)cc4CCc4cc(Cl)cc(Br)c43)CC2)CC1 [Lonafarnib]               5

###

- TEST SUMMARY: Plasma pharmacokinetics of gemcitabine
- Assay type: in vivo, human
- RUN PARAMETERS: human, plasma, intravenous, Gemcitabine Tmax (median), lonafarnib 100 mg BID+gemcitabine 1000 mg/m2; cycle 1 Day 15 (with lonafarnib); n=3
OBSERVATION TYPE: Tmax (min)

> print(dat)
                                   molecule  endpoint.value
1  Nc1ccn([C@@H]2O[C@H](CO)[C@@H](O)C2(F)F)c(=O)n1 [Gemcitabine]              15

###

- TEST SUMMARY: Plasma pharmacokinetics of gemcitabine
- Assay type: in vivo, human
- RUN PARAMETERS: human, plasma, intravenous, Gemcitabine Cmax, lonafarnib 100 mg BID+gemcitabine 1000 mg/m2; cycle 1 Day 15 (with lonafarnib); n=3
OBSERVATION TYPE: Cmax (ng/mL)

> print(dat)
                                   molecule  endpoint.value
1  Nc1ccn([C@@H]2O[C@H](CO)[C@@H](O)C2(F)F)c(=O)n1 [Gemcitabine]            9800

###

- TEST SUMMARY: Plasma pharmacokinetics of gemcitabine
- Assay type: in vivo, human
- RUN PARAMETERS: human, plasma, intravenous, 750 mg/m2, Gemcitabine AUC (τ), lonafarnib 100 mg BID+gemcitabine 750 mg/m2; cycle 1 Day 1 (gemcitabine alone); n=4
OBSERVATION TYPE: AUC (ng·h/mL)

> print(dat)
                                   compound  value.units  endpoint.value
1  Nc1ccn([C@@H]2O[C@H](CO)[C@@H](O)C2(F)F)c(=O)n1 [Gemcitabine]      ng·h/mL            5380

###

- TEST SUMMARY: Plasma pharmacokinetics of gemcitabine
- Type: in vivo, human
- RUN PARAMETERS: human, plasma, intravenous, Gemcitabine AUC (τ), lonafarnib 100 mg BID+gemcitabine 1000 mg/m2; cycle 1 Day 15 (with lonafarnib); n=3
OBSERVATION TYPE: AUC

> print(dat)
                                     smiles  endpoint.value
1  Nc1ccn([C@@H]2O[C@H](CO)[C@@H](O)C2(F)F)c(=O)n1    5060 ng·h/mL
